Examples of compounds with documented pIC50 follow.
biological target: butyrylcholinesterase (Human) (Homo sapiens, UniProt P06276)
Sequence (P06276 29-602): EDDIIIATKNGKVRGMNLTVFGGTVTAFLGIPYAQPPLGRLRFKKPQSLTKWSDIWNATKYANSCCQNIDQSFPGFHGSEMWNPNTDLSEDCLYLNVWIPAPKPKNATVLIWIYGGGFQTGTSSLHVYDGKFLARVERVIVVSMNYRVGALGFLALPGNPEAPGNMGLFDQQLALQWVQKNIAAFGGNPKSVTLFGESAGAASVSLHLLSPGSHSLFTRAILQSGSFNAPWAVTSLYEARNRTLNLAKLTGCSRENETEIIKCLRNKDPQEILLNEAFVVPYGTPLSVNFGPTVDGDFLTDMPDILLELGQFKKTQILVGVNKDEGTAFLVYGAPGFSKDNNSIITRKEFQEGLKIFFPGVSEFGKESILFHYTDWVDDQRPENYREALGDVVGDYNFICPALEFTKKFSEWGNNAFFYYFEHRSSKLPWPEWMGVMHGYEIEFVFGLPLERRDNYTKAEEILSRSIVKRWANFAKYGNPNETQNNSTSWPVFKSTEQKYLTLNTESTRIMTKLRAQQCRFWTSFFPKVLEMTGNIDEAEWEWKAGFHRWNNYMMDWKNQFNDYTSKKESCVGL
Here pIC50 is given on a logarithmic scale as minus log10 of the concentration in mol/L.

> print(dat)
                        smiles.notation  endpoint.result
1  O=c1cc(-c2ccc(O)cc2)oc2cc(O)cc(O)c12             5.71

We next turn to a different compound, shown below.
Measured pIC50 (butyrylcholinesterase (Human) (Homo sapiens, UniProt P06276)), entry COc1cc(O)c2c(=O)cc(-c3ccccc3)oc2c1OC : 5.84

----------
target: Acetylcholinesterase (Human) (Homo sapiens)
Sequence (P22303 32-614): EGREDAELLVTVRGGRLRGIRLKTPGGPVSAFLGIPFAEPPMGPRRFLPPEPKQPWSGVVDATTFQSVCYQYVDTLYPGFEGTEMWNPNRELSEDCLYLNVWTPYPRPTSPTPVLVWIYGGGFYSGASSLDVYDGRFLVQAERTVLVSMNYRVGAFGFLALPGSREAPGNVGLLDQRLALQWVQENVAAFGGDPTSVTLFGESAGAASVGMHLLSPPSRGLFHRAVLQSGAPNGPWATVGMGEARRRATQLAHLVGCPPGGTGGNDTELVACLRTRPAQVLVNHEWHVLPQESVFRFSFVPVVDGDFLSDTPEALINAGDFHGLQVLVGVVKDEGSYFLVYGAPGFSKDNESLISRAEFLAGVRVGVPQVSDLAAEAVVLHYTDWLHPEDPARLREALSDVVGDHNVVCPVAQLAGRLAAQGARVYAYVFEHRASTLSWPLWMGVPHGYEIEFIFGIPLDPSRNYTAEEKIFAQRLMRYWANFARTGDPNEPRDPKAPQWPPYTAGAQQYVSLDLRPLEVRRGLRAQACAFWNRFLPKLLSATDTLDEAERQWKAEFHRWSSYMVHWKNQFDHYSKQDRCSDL
measured_parameter: pIC50
Here pIC50 is given on a logarithmic scale as minus log10 of the concentration in mol/L.

compound	endpoint_result
COc1cc(O)c2c(=O)cc(-c3ccccc3)oc2c1OC [Compound 188316, 7-o-methylwogonin]	5.61
O=C(C=Cc1ccc(O)c(O)c1)OC1CC(O)(C(=O)O)CC(O)C1OC(=O)C=Cc1ccc(O)c(O)c1 (stereo not drawn) [Compound 5281780, 3,4-di-o-caffeoylquinic acid]	5.67

We next turn to a different compound, shown below.
In plain terms, O=c1cc(-c2ccc(O)cc2)oc2cc(O)cc(O)c12 [Compound 5280443, apigenin] has a documented pIC50 of 5.47
